Test system: Leishmania donovani
Assay: Antileishmanial activity against Leishmania donovani promastigotes
Type: functional, organism-based
Settings: read-out: IC50
Assay endpoint: IC50 (µM)
Reply with just the number (in µM).

[[record]]
input_smiles = "CC(C)CC(=O)c1c(O)c(C=O)c2c(c1O)C[C@H]1C[C@H]3C[C@H](C3(C)C)[C@@]1(CCO)O2"
measure_unit = "µM"
meas_value = 2.28


In: Could you tell me which IC50 is on file for CC(C)C[C@H]1C[C@@]2(CC[C@H]3C[C@@H]2C3(C)C)Oc2c(C=O)c(O)c(C=O)c(O)c21 ?
Out: 5.17

In: Could you tell me which IC50 is on file for CC(=O)c1c(O)c(C=O)c(O)c2c1O[C@]1(C)C[C@@H]3[C@H](C[C@@H]1C2)C3(C)C ?
Out: 4.07

In: Could you tell me which IC50 is on file for CC(C)CC(=O)c1c(O)c(C=O)c(O)c2c1O[C@@]1(C)[C@H](CC[C@H]3[C@@H]1C3(C)C)C2 ?
Out: 1.42

In: Could you tell me which IC50 is on file for CC(C)CC(=O)c1c(O)c(C=O)c2c(c1O)C[C@H]1C[C@H]3C[C@H](C3(C)C)[C@@]1(C)O2 ?
Out: 0.93

In: Could you tell me which IC50 is on file for CC(=O)c1c(O)c(C=O)c2c(c1O)CC[C@@]1(CC[C@H]3C[C@@H]1C3(C)C)O2 ?
Out: 4.65

In: Could you tell me which IC50 is on file for CC(C)CC(=O)c1c(O)c(C=O)c2c(c1O)C[C@H]1C[C@H]3C[C@H](C3(C)C)[C@@]1(CO)O2 ?
Out: 4.47
